system: S. aureus CAIRD116; test: Antibiotic testing, methicillin-resistant S. aureus CAIRD116; format: cell-based; conditions: Staphylococcus aureus, CAIRD116; methicillin-resistant strain
Consider the cut-off 6 µg/mL. If the recorded MIC is strictly smaller, the label is Fulfilled; if not, the label is Not fulfilled.

Prompt line: I'd appreciate it if you could check whether `C[C@@H]1CCCCCCCCC[C@H](O)C(=O)C[C@@H](SC[C@@H](O)C(=O)O)C(=O)O1` has MIC smaller than 6 µg/mL.
Response line: Fulfilled

Prompt line: Take the compound `C[C@@H]1CCCCCCCCC[C@H](OC(=O)CCC(=O)O)C(=O)C[C@@H](SC[C@@H](O)C(=O)O)C(=O)O1` and say whether its MIC is less than 6 µg/mL.
Response line: Not fulfilled

Prompt line: Hello, I'm reviewing records and need to know if MIC of `C[C@H]1OC(=O)/C=C/[C@@H](O)[C@@H](OC(=O)CCC(=O)O)CCCCCCCC[C@@H]1O` is below 6 µg/mL. Could you check?
Response line: Not fulfilled

Prompt line: Determine whether this compound shows MIC lower than 6 µg/mL (ties excluded): `COC(=O)[C@H](O)CS[C@@H]1CC(=O)[C@@H](O)CCCCCCCCC[C@@H](C)OC1=O`
Response line: Fulfilled

Prompt line: Dear reviewer, please state whether `C[C@@H]1CCCCCCCCC[C@H](OC(=O)CCC(=O)O)[C@H](O)/C=C/C(=O)O1` has MIC strictly beneath 6 µg/mL.
Response line: Not fulfilled

Prompt line: # TODO verify MIC < 6 µg/mL strictly for this compound: COC(=O)[C@@H](CS[C@@H]1CC(=O)[C@@H](OC(C)=O)CCCCCCCCC[C@@H](C)OC1=O)OC(C)=O [BPL 76-diacetate]
Response line: Fulfilled

Prompt line: For this compound, is MIC lower than 6 µg/mL? `O=C(O)CCC(=O)O[C@H]1CCCCCCCCC[C@@H](CO)OC(=O)/C=C/[C@H]1O`
Response line: Not fulfilled

----------
Test system Streptococcus pyogenes, MIC listed for each of the compounds.
Give the quantity in µg/mL, number only.

Prompt line: Item under review: `COC(=O)[C@H](O)CS[C@@H]1CC(=O)[C@@H](O)CCCCCCCCC[C@@H](C)OC1=O` . Reported MIC?
Response line: 3

Prompt line: Recorded MIC of COC(=O)[C@@H](CS[C@@H]1CC(=O)[C@@H](OC(C)=O)CCCCCCCCC[C@@H](C)OC1=O)OC(C)=O [BPL 76-diacetate] , please.
Response line: 15

Hey, just so you know, these numbers are from patent US11401253B2.
